Target: Human immunodeficiency virus type 1 reverse transcriptase (Human immunodeficiency virus 1)
Experiment: In vitro inhibitory activity against HIV-1 RT in CEM4 cell line
Some compounds, each annotated with its measured IC50.
Quantity measured: IC50 (nM)

1) C/C=C/C[C@@H](C)[C@@H](O)[C@H]1C(=O)N[C@@H](CC)C(=O)N(C)[C@H](SC)C(=O)N(C)[C@@H](CC(C)(C)O)C(=O)N[C@@H](C(C)C)C(=O)N(C)[C@@H](CC(C)C)C(=O)N[C@@H](C)C(=O)N[C@H](C)C(=O)N(C)[C@@H](CC(C)C)C(=O)N(C)[C@@H](CC(C)C)C(=O)N(C)[C@@H](C(C)C)C(=O)N1C	84
2) C/C=C/C[C@@H](C)[C@@H](O)[C@H]1C(=O)N[C@@H](CC)C(=O)N(C)[C@H](SCCN2CCOCC2)C(=O)N(C)[C@@H](CC(C)C)C(=O)N[C@@H](C(C)C)C(=O)N(C)[C@@H](CC(C)C)C(=O)N[C@@H](C)C(=O)N[C@H](C)C(=O)N(C)[C@@H](CC(C)C)C(=O)N(C)[C@@H](CC(C)C)C(=O)N(C)[C@@H](C(C)C)C(=O)N1C	101
3) C/C=C/C[C@@H](C)[C@@H](O)[C@H]1C(=O)N[C@@H](CC)C(=O)N(C)[C@H](SCCN(C)C)C(=O)N(C)[C@@H](CC(C)(C)O)C(=O)N[C@@H](C(C)C)C(=O)N(C)[C@@H](CC(C)C)C(=O)N[C@@H](C)C(=O)N[C@H](C)C(=O)N(C)[C@@H](CC(C)C)C(=O)N(C)[C@@H](CC(C)C)C(=O)N(C)[C@@H](C(C)C)C(=O)N1C	45
4) C/C=C/C[C@@H](C)[C@@H](O)[C@H]1C(=O)N[C@@H](CC)C(=O)N(C)[C@H](SC)C(=O)N(C)[C@@H](CC(C)C)C(=O)N[C@@H](C(C)C)C(=O)N(C)[C@@H](CC(C)C)C(=O)N[C@@H](C)C(=O)N[C@H](C)C(=O)N(C)[C@@H](CC(C)C)C(=O)N(C)[C@@H](CC(C)C)C(=O)N(C)[C@@H](C(C)C)C(=O)N1C	65.5

###

Target: Human immunodeficiency virus type 1 reverse transcriptase (Human immunodeficiency virus 1, UniProt Q72547)
Test: In vitro inhibitory activity against HIV-1 RT in CEM4 cell line
Assay type: cell-based
pIC50: −log10 of the molar value.
Some compounds, each annotated with its measured pIC50.
Quantity measured: pIC50

1) C/C=C/C[C@@H](C)[C@@H](O)[C@H]1C(=O)N[C@@H](CC)C(=O)N(C)CC(=O)N(C)[C@@H](C[C@@H](C)CC)C(=O)N[C@@H](C(C)C)C(=O)N(C)[C@@H](CC(C)C)C(=O)N[C@@H](C)C(=O)N[C@H](C)C(=O)N(C)[C@@H](CC(C)C)C(=O)N(C)[C@@H](CC(C)C)C(=O)N(C)[C@@H](C(C)C)C(=O)N1C	6.53
2) C/C=C/C[C@@H](C)[C@@H](O)[C@H]1C(=O)N[C@@H](CC)C(=O)N(C)[C@H](SCCN2CCCCC2)C(=O)N(C)[C@@H](CC(C)C)C(=O)N[C@@H](C(C)C)C(=O)N(C)[C@@H](CC(C)C)C(=O)N[C@@H](C)C(=O)N[C@H](C)C(=O)N(C)[C@@H](CC(C)C)C(=O)N(C)[C@@H](CC(C)C)C(=O)N(C)[C@@H](C(C)C)C(=O)N1C	7.14
